- Measured target: NPR-C (Homo sapiens, UniProt P17342)
- Construct: expressed in transfected cells; host or cells: HEK293, transient, pCDNA1.1 (CMV promoter)
- Sequence (P17342 27-541): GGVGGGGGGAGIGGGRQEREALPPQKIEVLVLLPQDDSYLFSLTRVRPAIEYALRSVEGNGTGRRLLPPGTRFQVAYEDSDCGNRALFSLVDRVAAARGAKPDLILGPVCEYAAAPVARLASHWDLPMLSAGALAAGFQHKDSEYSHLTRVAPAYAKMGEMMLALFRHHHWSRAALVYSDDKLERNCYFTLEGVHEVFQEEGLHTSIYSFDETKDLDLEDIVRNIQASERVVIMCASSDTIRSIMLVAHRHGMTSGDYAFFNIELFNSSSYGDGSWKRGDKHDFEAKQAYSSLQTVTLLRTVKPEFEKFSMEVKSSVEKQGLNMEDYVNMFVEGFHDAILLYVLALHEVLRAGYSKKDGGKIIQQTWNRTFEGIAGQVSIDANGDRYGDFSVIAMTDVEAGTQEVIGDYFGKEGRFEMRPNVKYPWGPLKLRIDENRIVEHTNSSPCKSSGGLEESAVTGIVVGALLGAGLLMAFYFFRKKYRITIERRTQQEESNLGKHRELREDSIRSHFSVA
- Experimental protocol: Competition of PLAP-Ostn binding on NPR-C over-expressing cells
- Run parameters: ~30 nM PLAP-Ostn, NPR-C transfected cells; read-out: concentration competing off 50% of the binding of PLAP-mOstn
No end group written: not given here.
Observable: IC50

Query :: So what does the record say about IC50 for YDHSKKRFGIPMDRIGRNRLSNSR-NH2 [Ostn[107-129]] ?
Result :: 1 to 10 nM
